- assay_system: PEG-3 (UniProt Q6IN02)
- Sequence (Q6IN02 whole entry, looked up): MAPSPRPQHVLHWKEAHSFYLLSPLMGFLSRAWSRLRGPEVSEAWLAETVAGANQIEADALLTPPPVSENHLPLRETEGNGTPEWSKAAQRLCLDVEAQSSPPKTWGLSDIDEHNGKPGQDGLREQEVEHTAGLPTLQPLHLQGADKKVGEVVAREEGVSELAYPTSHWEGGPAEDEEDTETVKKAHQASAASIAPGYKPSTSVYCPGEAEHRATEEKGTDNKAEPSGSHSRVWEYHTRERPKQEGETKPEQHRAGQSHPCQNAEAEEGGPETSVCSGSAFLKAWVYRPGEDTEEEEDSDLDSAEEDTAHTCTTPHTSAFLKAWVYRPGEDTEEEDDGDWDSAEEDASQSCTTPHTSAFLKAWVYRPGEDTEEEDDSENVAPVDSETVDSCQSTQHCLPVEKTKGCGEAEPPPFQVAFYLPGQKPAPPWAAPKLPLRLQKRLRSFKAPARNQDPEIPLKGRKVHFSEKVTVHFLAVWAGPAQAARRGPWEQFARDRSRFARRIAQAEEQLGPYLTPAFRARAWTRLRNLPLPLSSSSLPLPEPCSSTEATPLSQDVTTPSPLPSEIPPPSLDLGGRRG
- protocol: Peg3 promoter luciferase inhibitors, potency, dose response, cell-based, HeLa, CREF/GAPDH counter-screen panel (AID 624167)
- conditions_used: HeLa PEG-Prom luciferase reporter, overnight, CREF/GAPDH counter-screens, mean of runs
Calls of active or inactive are those of the source.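 Rule for the calls: active = mean IC50 for reducing PEG3 promoter reporter signal at or below a set limit, with IC50 above the limit in both counter screens; inactive = the rest, including counter screen hits.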
Classes used: active, inactive

INSERT INTO measurements (compound, assay_system, group_label) VALUES
  ('CCOC(=O)c1c(NC(=O)CSc2nnnn2-c2ccccc2OCC)sc2c1CC(C)(C)NC2(C)C', 'PEG-3 (UniProt Q6IN02)', 'inactive'),
  ('CCOc1ccc2c(ccc(/C=C/c3cc(C)c4cccnc4c3O)[n+]2C)c1', 'PEG-3 (UniProt Q6IN02)', 'active'),
  ('Clc1cccc(-c2nc(-c3ccccn3)no2)c1', 'PEG-3 (UniProt Q6IN02)', 'active'),
  ('O=C(c1ccccc1)N(C(=O)c1ccccc1)c1ncnc2c1C(c1ccccc1)c1c(ccc3ccccc13)O2 (stereo unspecified)', 'PEG-3 (UniProt Q6IN02)', 'inactive'),
  ('COc1ccccc1CCNC(=O)C1CCN(c2nnc(C)c3c(C)n(-c4ccc(C)cc4)nc23)CC1', 'PEG-3 (UniProt Q6IN02)', 'inactive'),
  ('COc1ccc(C2c3ccc4ccccc4c3Oc3ncn(CCCO)c(=N)c32)cc1 (stereo unspecified)', 'PEG-3 (UniProt Q6IN02)', 'active'),
  ('CC(C)c1ccc(-c2nc3ccccc3s2)cc1', 'PEG-3 (UniProt Q6IN02)', 'inactive'),
  ('CCCCC(=O)NC(c1ccccc1)c1ccc2cccnc2c1O (stereo unspecified)', 'PEG-3 (UniProt Q6IN02)', 'inactive'),
  ('C(=NNc1ccc2ccccc2n1)c1ccccn1', 'PEG-3 (UniProt Q6IN02)', 'active'),
  ('CCCCCN1C=CC(=C2C(=O)c3ccccc3C2=O)C=C1', 'PEG-3 (UniProt Q6IN02)', 'active'),
  ('Cc1ccc(C(=O)CN2C(=O)c3ccccc3S2(=O)=O)cc1', 'PEG-3 (UniProt Q6IN02)', 'active');

* * *

- assay_system: PEG-3 (UniProt Q6IN02)
- protocol: Peg3 promoter luciferase inhibitors, potency, dose response, cell-based, HeLa, CREF/GAPDH counter-screen panel (AID 624167)
- conditions_used: HeLa PEG-Prom luciferase reporter, overnight, CREF/GAPDH counter-screens, mean of runs
Activity calls are given as the source filed them.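 The calls were made as follows: active = mean IC50 for reducing PEG3 promoter reporter signal at or below a set limit, with IC50 above the limit in both counter screens; inactive = the rest, including counter screen hits.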
Classes used: t = active, f = inactive

INSERT INTO assay_data (compound, group_label) VALUES
  ('CN1C/C(=C/c2ccccc2[N+](=O)[O-])C(=O)/C(=C\c2ccccc2[N+](=O)[O-])C1', 't'),
  ('CC(=O)OC1CC[C@]2(C#N)[C@H]3CC[C@]4(C)[C@H](C5C=CC(=O)O5)CCC4(O)C3CCC2(O)C1 (stereo not given in full)', 't'),
  ('CCCCn1nnnc1C(CCSC)N1CCC(n2c(=O)[nH]c3ccccc32)CC1 (stereo not given)', 'f'),
  ('COc1ccc(C(NC(=O)C(C)C)c2ccc3cccnc3c2O)cc1 (stereo not given)', 't'),
  ('CN=c1sc2c(n1C)C(=O)c1ccccc1C2=O', 't'),
  ('CCOC(=O)C1CCN(c2cc3c(cc2NC(=O)c2ccccc2OCC)n(C)c(=O)n3C)CC1', 'f'),
  ('COC(=O)C1=C(C(=O)OC)C(C(=O)OC)C(C(=O)OC)C(C(=O)OC)(C(=O)OC)C(C(=O)OC)=C1C(=O)OC (stereo not given)', 't'),
  ('O=c1c2ccccc2sc2nc(CCl)nn12', 't'),
  ('S=C(NN=C(c1ccccc1)c1ccccn1)N(Cc1ccccn1)Cc1ccccn1', 't'),
  ('Cc1cccc(/C=C2/Sc3ccc(C(=O)NCCN4CCCC4)cc3NC2=O)c1', 't');

This collection of values is drawn from PubChem BioAssay AID624167.
